- Test system: SRPK2
- ASSAY_CONDITIONS: concentration: 1 μM, replicates: in singlicate; n = 1;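 further: KINOMEscan kinase panel screen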
Here the recorded %Inh is given for each entry.
Write the figure, then the unit, nothing else.

Worked examples, 3 molecules total:
MOLECULE	MEASURED_PROPERTY	VALUE_REPORTED
O=C(Nc1ccccc1F)NC1CCN(c2ccnc(Nc3ccc(F)cc3)n2)CC1	%Inh	25%
COc1cc(Nc2nccc(N3CCC(NC(=O)c4cc5ccccc5s4)C3)n2)cc(OC)c1OC (centres unmarked)	%Inh	0%
Cc1cccc(Nc2nc(N[C@H]3CCNC3)ncc2C(N)=O)c1.Cl	%Inh	0%

%Inh for CCn1c(-c2nonc2N)nc2c(C#CC(C)(C)O)nc(OC[C@H](N)c3ccccc3)cc21 is 0%

The reported value for CCCCc1nn2ncccc2c1-c1ccnc(Nc2ccc(N3CCN(C)CC3)cc2)n1 in terms of %Inh is 6%

What the record says about COc1cc(Nc2nccc(N3CCC(NC(=O)Nc4cccc(C(C)=O)c4)C3)n2)cc(OC)c1OC (centres unmarked) : %Inh is 0%

Value of %Inh reported for the molecule Cl.c1ccc(-c2ccc3c(Nc4ccc5[nH]ncc5c4)ccnc3c2)nc1 is 0%

Quick note, %Inh for CCS(=O)(=O)c1ccc(OC)c(Nc2nccc(-c3c(-c4cccc(NC(=O)c5c(F)cccc5F)c4)nn4ncccc34)n2)c1 landed at 0%

----------
- System: CSF1R
- ASSAY_CONDITIONS: concentration: 1 μM, replicates: in singlicate; n = 1
Decision: %Inh compared against 90%; not below it gives 1 (yes), below it gives 0 (no).

Some solved entries appear below for comparison.
MOLECULE	TARGET_OR_SYSTEM	GROUP
CCCCc1nn2ncccc2c1-c1ccnc(Nc2ccc(N3CCN(C)CC3)cc2)n1 [GW684941]	CSF1R	1 (yes)
COc1cc(Nc2nccc(-c3c(-c4cccc(NC(=O)c5c(F)cccc5F)c4)nn4ncccc34)n2)cc(OC)c1OC [GSK327238]	CSF1R	1 (yes)
Cc1cccc(Nc2nc(N[C@H]3CCNC3)ncc2C(N)=O)c1.Cl [GSK2197149]	CSF1R	0 (no)
CN(c1ccc(NC(=O)Nc2cc(C(F)(F)F)ccc2F)cc1)c1ccnc(Nc2ccc(S(N)(=O)=O)cc2)n1 [GW809893]	CSF1R	0 (no)
COC(=O)Nc1nc2cc(Oc3ccc(NC(=O)Nc4cc(C(F)(F)F)ccc4F)cn3)ccc2[nH]1.Cl.Cl [GW681170]	CSF1R	0 (no)
CC(C)c1nc(-c2cccc(NS(=O)(=O)c3c(F)cccc3F)c2F)c(-c2ccnc(Nc3ccc(N4CCOCC4)nc3)n2)s1 [GSK2008607]	CSF1R	0 (no)

Could you verify whether the entry CNC(=O)c1ccccc1Nc1nc(Nc2ccc(N3CCOCC3)cc2)ncc1Cl.Cl [GSK1576028] shows %Inh of no less than 90%? 1 (yes)

Reported %Inh at or above 90%? Cl.c1ccc(-c2ccc3c(Nc4ccc5[nH]ncc5c4)ccnc3c2)nc1 [GW440137] 0 (no)

Given the entry O=C(Nc1n[nH]c2nc(-c3ccc(O)cc3)ccc12)C1CC1 [SB-710363] , answer whether its %Inh meets or surpasses 90%. 0 (no)

Does the reported %Inh for CCn1c(-c2nonc2N)nc2c(C#CC(C)(C)O)nc(OC[C@H](N)c3ccccc3)cc21 [GSK943949] fall at or above the 90% mark? 0 (no)

Can O=C(Nc1cccc(-c2nn3ncccc3c2-c2ccnc(Nc3ccccc3)n2)c1)c1c(F)cccc1F [GSK198271] be said to have %Inh at or above 90%? 1 (yes)

I'd appreciate it if you could say whether Cl.NC(=O)c1cccc(Nc2nccc(Nc3ccc(Oc4c(Cl)cccc4Cl)c(Cl)c3)n2)c1 [GW659009] has %Inh at least equal to 90%. 0 (no)

Is %Inh at least 90%? Consider O=C(Nc1cccc(-c2nn3ccccc3c2-c2ccnc(Nc3cccc(F)c3)n2)c1)c1c(F)ccc(F)c1Cl [GSK357952] 1 (yes)

Does the molecule Cc1cccc(NC(=O)Nc2ccc(Oc3ncnc4ccn(C)c34)cc2)c1 have recorded %Inh that is 90% or more? 1 (yes)

Could you tell me if the measured %Inh of COc1cccc(C2=C(Nc3ccc(Cl)c(C(=O)O)c3)C(=O)NC2=O)c1 [SB-390769] reaches 90% or more? 0 (no)

Hello, I need to know if O=C(NC1CCN(c2ccnc(Nc3ccc(F)cc3)n2)C1)c1cc2ccccc2s1 (stereo not shown) [GSK1379716] has measured %Inh not below 90%. Thanks! 0 (no)

----------
- System: MAP4K3
- ASSAY_CONDITIONS: concentration: 1 μM, replicates: in singlicate; n = 1
Items are presented alongside their recorded %Inh.
Report only the number, with the unit % understood.

COMPOUND	MEASURED_PROPERTY	VALUE_REPORTED
CC(=O)Nc1nc2cnc(Nc3cc(NC(=O)c4cccc(C5(C#N)CC5)c4Cl)ccc3C)nc2s1	%Inh	0

Field %Inh (entry Cc1cccc(Nc2nc(N[C@H]3CCNC3)ncc2C(N)=O)c1.Cl ) reads 40

Record summary for O=C(O)C(F)(F)F.O=C(O)C(F)(F)F.O=c1[nH]ccc2nc(N[C@@H]3CCCNC3)nc(Nc3ccc(S(=O)(=O)N4CCOCC4)cc3)c12 : reported %Inh = 99

%Inh in this record for Cc1ccc(C(=O)Nc2ccc(Nc3ccnc4cc(-c5nccs5)ccc34)cc2O)cc1.Cl : 0

Noted for CCS(=O)(=O)c1ccc(OC)c(Nc2nccc(-c3c(-c4cccc(NC(=O)c5c(F)cccc5F)c4)nn4ncccc34)n2)c1 : its %Inh reads 22

Value of %Inh reported for the compound O=C(Nc1ccccc1F)NC1CCN(c2ccnc(Nc3ccc(F)cc3)n2)CC1 is 0

Entry CN(C)S(=O)(=O)c1cc(-c2ccc3nccc(-c4cccc(S(N)(=O)=O)c4)c3c2)cnc1N ; %Inh = 5

Please fill in: %Inh reported for CCc1ccc(-c2ccc3c(c2)-c2c(cnn2C)S(=O)(=O)N3C)cc1 = 3

Entry COCCOCCOc1cc2ncc3c4ccc(C#N)cc4[nH]c3c2cc1OC , %Inh reported as 39

----------
%Inh values by entry
- Tested on: CSK
- ASSAY_CONDITIONS: concentration: 1 μM, replicates: in singlicate; n = 1

Some molecules with known %Inh results, for comparison:
MOLECULE	%Inh
Cn1cc(-c2ccc3c(c2)CCN3C(=O)Cc2cccc(Cl)c2)c2c(N)ncnc21	6%
CC(=O)Nc1nc2cnc(Nc3cc(NC(=O)c4cccc(C5(C#N)CC5)c4Cl)ccc3C)nc2s1	41%
c1ccc(-c2cnc3nccnn23)cc1	0%
COc1ccc(-c2coc3ccc(-c4nnc(SCc5ccc(OC)c(C(F)(F)F)c5)o4)cc23)cc1	16%
COc1cccc(-c2ccc3c(NC(=O)C4CC4)n[nH]c3n2)c1	0%
Nc1ncnc2c1nc(-c1ccccc1)n2-c1ccccc1	22%

Entry COc1cc(Nc2nccc(-c3c(-c4cccc(NC(=O)c5c(F)cccc5F)c4)nn4ncccc34)n2)cc(OC)c1OC ; assay system CSK; %Inh recorded at 98.1%

Summary: Fc1ccc(-c2ncn(C3CCNCC3)c2-c2ccnc(Oc3ccc(-c4ccccc4)cc3)n2)cc1 , CSK, %Inh = 14%

The reported CSK %Inh of Cl.Cl.NCC(NC(=O)c1cc(-c2ccccc2)c(-c2ccnc3[nH]ccc23)s1)c1ccccc1 (stereo not drawn) is 0%

%Inh value, target or system CSK, for CCn1c(-c2nonc2N)nc2c(C#CC(C)(C)O)nc(OC[C@H](N)c3ccccc3)cc21 : 0%

----------
Measured %Inh by item
- Tested on: RPS6KA4(Kin.Dom.2-C-terminal)
- ASSAY_CONDITIONS: concentration: 1 μM, replicates: in singlicate; n = 1
Express it in %; write the number only.

SMILES_REPR	MEASURED_PROPERTY	VALUE_REPORTED
COc1cc(Nc2nccc(-c3c(-c4cccc(NC(=O)c5c(F)cccc5F)c4)nn4ncccc34)n2)cc(OC)c1OC	%Inh	0
Cc1occc1-c1ncc(OC[C@@H](N)Cc2c[nH]c3ccccc23)cc1-c1ccc2[nH]nc(C)c2c1.O=C(O)C(F)(F)F	%Inh	0
O=C(O)C(F)(F)F.O=C(O)C(F)(F)F.O=c1[nH]ccc2nc(N[C@@H]3CCCNC3)nc(Nc3ccc(S(=O)(=O)N4CCOCC4)cc3)c12	%Inh	98.5
CCc1ccc(-c2ccc3c(c2)-c2c(cnn2C)S(=O)(=O)N3C)cc1	%Inh	0
C[C@@H]1CC[C@@H](C(=O)Nc2ccccc2)CN1c1cc(-c2ccc3c(N)n[nH]c3c2)nc(N)n1	%Inh	0

Recorded result, COc1ccc(Nc2nccc(NCCNC(=O)c3cc4ccccc4s3)n2)cc1 , %Inh: 0

Just so you know, measured %Inh for CC(C)c1nc(-c2cccc(NS(=O)(=O)c3c(F)cccc3F)c2F)c(-c2ccnc(Nc3ccc(N4CCOCC4)nc3)n2)s1 came out at 0
